# credit: patent US6620828B2

TARGET DESC: CDK2/Cyclin A complex (Homo sapiens, UniProt P24941)
TEST DESCRIPTION: CDK2/Cyclin A assay
Type: biochemical
Design: concentration or dose not given beside the values
COND: Table A combinatorial examples; footnote c not given
ASSAY READOUT: CDK2^c

[[record]]
structure_as_smiles = "COc1cc(Nc2nc(N)c(-c3nc(-c4ccc(-c5ccc(Cl)cc5Cl)o4)cs3)s2)cc(OC)c1OC"
result_value = 12.4

[[record]]
structure_as_smiles = "COc1cc(Nc2nc(N)c(-c3nc(-c4ccc(OC(=O)c5ccccc5)cc4)cs3)s2)cc(OC)c1OC"
result_value = 14.6

[[record]]
structure_as_smiles = "COc1cc(Nc2nc(N)c(-c3nc(-c4ccc(Cl)cc4Cl)cs3)s2)cc(OC)c1OC"
result_value = 3.8

[[record]]
structure_as_smiles = "COc1cc(Nc2nc(N)c(-c3nc(-c4ccc5c(c4)C(C)(C)CCC5(C)C)cs3)s2)cc2c1OCCO2"
result_value = 4.2


* * *

Test system: human umbilical vein endothelial cells (HUVEC)
TEST DESCRIPTION: HUVEC proliferation assay
Format: cell-based
COND: Homo sapiens, HUVEC, table following Table II (untitled); 10 nM; crude combinatorial library; read-out: % inhibition @ 10 nM
ASSAY READOUT: inhibition at 0.01 µM (%)

[[record]]
molecule = "COc1cc(Nc2nc(N)c(-c3nc(-c4cc(NC(=O)Cc5cc(F)cc(F)c5)ccc4C)no3)s2)cc(OC)c1OC"
assay_readout = "inhibition at 0.01 µM"
uom = "%"
result_value = 67

[[record]]
molecule = "CCNc1ccccc1C(=O)Nc1ccc(C)c(-c2noc(-c3sc(Nc4cc(OC)c(OC)c(OC)c4)nc3N)n2)c1"
assay_readout = "inhibition at 0.01 µM"
uom = "%"
result_value = 18

[[record]]
molecule = "COc1cc(Nc2nc(N)c(-c3nc(-c4cc(NC(=O)c5ccc(=O)oc5)ccc4C)no3)s2)cc(OC)c1OC"
assay_readout = "inhibition at 0.01 µM"
uom = "%"
result_value = 51

[[record]]
molecule = "COc1cc(Nc2nc(N)c(-c3nc(-c4cc(NC(=O)C5CCOC5)ccc4C)no3)s2)cc(OC)c1OC (stereo not shown)"
assay_readout = "inhibition at 0.01 µM"
uom = "%"
result_value = 6

[[record]]
molecule = "COc1cc(Nc2nc(N)c(-c3nc(-c4cc(NC(=O)[C@H]5CC(=O)NC(=O)N5)ccc4C)no3)s2)cc(OC)c1OC"
assay_readout = "inhibition at 0.01 µM"
uom = "%"
result_value = 2

[[record]]
molecule = "COc1cc(Nc2nc(N)c(-c3nc(-c4cc(NC(=O)CC5=CCCCC5)ccc4C)no3)s2)cc(OC)c1OC"
assay_readout = "inhibition at 0.01 µM"
uom = "%"
result_value = 43

[[record]]
molecule = "C=CCC(=O)Nc1ccc(C)c(-c2noc(-c3sc(Nc4cc(OC)c(OC)c(OC)c4)nc3N)n2)c1"
assay_readout = "inhibition at 0.01 µM"
uom = "%"
result_value = 72

[[record]]
molecule = "COc1cc(Nc2nc(N)c(-c3nc(-c4cc(NC(=O)CSC(=S)N(C)C)ccc4C)no3)s2)cc(OC)c1OC"
assay_readout = "inhibition at 0.01 µM"
uom = "%"
result_value = -7

[[record]]
molecule = "C/C=C/C(=O)Nc1ccc(C)c(-c2noc(-c3sc(Nc4cc(OC)c(OC)c(OC)c4)nc3N)n2)c1"
assay_readout = "inhibition at 0.01 µM"
uom = "%"
result_value = 65

[[record]]
molecule = "COc1cc(Nc2nc(N)c(-c3nc(-c4cc(NC(=O)Cc5cn(C)cn5)ccc4C)no3)s2)cc(OC)c1OC"
assay_readout = "inhibition at 0.01 µM"
uom = "%"
result_value = -14

[[record]]
molecule = "COc1cc(Nc2nc(N)c(-c3nc(-c4cc(NC(=O)C(C)OC=C(C)C)ccc4C)no3)s2)cc(OC)c1OC (stereo not shown)"
assay_readout = "inhibition at 0.01 µM"
uom = "%"
result_value = 11

[[record]]
molecule = "COc1cc(Nc2nc(N)c(-c3nc(-c4cc(NC(=O)c5cc(C)on5)ccc4C)no3)s2)cc(OC)c1OC"
assay_readout = "inhibition at 0.01 µM"
uom = "%"
result_value = 15

[[record]]
molecule = "COc1cc(Nc2nc(N)c(-c3nc(-c4cc(NC(=O)C(O)CC(C)C)ccc4C)no3)s2)cc(OC)c1OC (stereo not shown)"
assay_readout = "inhibition at 0.01 µM"
uom = "%"
result_value = 69

[[record]]
molecule = "COc1cc(Nc2nc(N)c(-c3nc(-c4cc(NC(=O)C5CCSCN5C)ccc4C)no3)s2)cc(OC)c1OC (stereo not shown)"
assay_readout = "inhibition at 0.01 µM"
uom = "%"
result_value = 29

[[record]]
molecule = "COc1cc(Nc2nc(N)c(-c3nc(-c4cc(NC(=O)C5=C[C@@H](O)[C@@H](O)[C@H](O)C5)ccc4C)no3)s2)cc(OC)c1OC"
assay_readout = "inhibition at 0.01 µM"
uom = "%"
result_value = 6

[[record]]
molecule = "COc1cc(Nc2nc(N)c(-c3nc(-c4cc(NC(=O)C5CC[C@H]6C=C[C@@H]5C6)ccc4C)no3)s2)cc(OC)c1OC (stereo partly shown)"
assay_readout = "inhibition at 0.01 µM"
uom = "%"
result_value = 33

[[record]]
molecule = "COc1cc(Nc2nc(N)c(-c3nc(-c4cc(NC(=O)c5cc(C)n[nH]5)ccc4C)no3)s2)cc(OC)c1OC"
assay_readout = "inhibition at 0.01 µM"
uom = "%"
result_value = 99

[[record]]
molecule = "COc1cc(Nc2nc(N)c(-c3nc(-c4cc(NC(=O)c5ccccc5C(C)C)ccc4C)no3)s2)cc(OC)c1OC"
assay_readout = "inhibition at 0.01 µM"
uom = "%"
result_value = 11

[[record]]
molecule = "COc1cc(Nc2nc(N)c(-c3nc(-c4cc(NC(=O)/C=C/C(=O)NCC5CC5)ccc4C)no3)s2)cc(OC)c1OC"
assay_readout = "inhibition at 0.01 µM"
uom = "%"
result_value = 5

[[record]]
molecule = "COc1cc(Nc2nc(N)c(-c3nc(-c4cc(NC(=O)[C@H]5CCC(=O)N5)ccc4C)no3)s2)cc(OC)c1OC"
assay_readout = "inhibition at 0.01 µM"
uom = "%"
result_value = 13

[[record]]
molecule = "COc1cc(Nc2nc(N)c(-c3nc(-c4cc(NC(=O)C5CCC6CCC(O)CC5C6)ccc4C)no3)s2)cc(OC)c1OC (stereo not shown)"
assay_readout = "inhibition at 0.01 µM"
uom = "%"
result_value = 11

[[record]]
molecule = "CCn1nc(C)cc1C(=O)Nc1ccc(C)c(-c2noc(-c3sc(Nc4cc(OC)c(OC)c(OC)c4)nc3N)n2)c1"
assay_readout = "inhibition at 0.01 µM"
uom = "%"
result_value = 44

[[record]]
molecule = "COc1cc(Nc2nc(N)c(-c3nc(-c4cc(NC(=O)c5ccccc5)ccc4C)no3)s2)cc(OC)c1OC"
assay_readout = "inhibition at 0.01 µM"
uom = "%"
result_value = 111

[[record]]
molecule = "COc1cc(Nc2nc(N)c(-c3nc(-c4cc(NC(=O)CCC(=O)N5CCCC5)ccc4C)no3)s2)cc(OC)c1OC"
assay_readout = "inhibition at 0.01 µM"
uom = "%"
result_value = -20

[[record]]
molecule = "CC/C=C(\\C)C(=O)Nc1ccc(C)c(-c2noc(-c3sc(Nc4cc(OC)c(OC)c(OC)c4)nc3N)n2)c1"
assay_readout = "inhibition at 0.01 µM"
uom = "%"
result_value = 74

